Tested on: E. hormaechei (CCUG #58962)
Assay: Antibacterial activity against isolates (Omnilog, Biolog redox dye)
Type: cell-based, Enterobacter hormaechei
Details: SI = ((EC50 MCF-7 + EC50 HepG2)/2)/EC50 bacterial strain
Measurement Label: Selectivity index E. hormaechei (CCUG #58962)
Quick one: just the number, no unit, thanks!

Request: Which Selectivity index E. hormaechei (CCUG #58962) value belongs to COC(=O)c1cc(NC(=N)N)ccc1-c1ccc(-c2ccc(NC(=N)N)cc2C(=O)OC)o1 ?
Result: 29.4

Request: Note, next up: N=C(N)Nc1ccc(-c2ccc(-c3ccc(NC(=N)N)cc3Cl)o2)c(Cl)c1
Result: 5.0

Request: Follow-up item: Cc1cc(NC(=N)N)ccc1-c1ccc(-c2ccc(NC(=N)N)cc2C)o1
Result: 3.4

Request: Can you check N=C(N)Nc1ccc(-c2ccc(C(=O)N3CCc4cc(NC(=N)N)ccc43)o2)c(Cl)c1 next?
Result: 16.4

Request: Input N=C(N)Nc1ccc(-c2ccc(-c3ccc(NC(=N)N)cc3)o2)cc1
Result: 16.4

Request: Next entry: COc1cc(NC(=N)N)ccc1-c1ccc(-c2ccc(NC(=N)N)cc2OC)o1
Result: 9.0
